Readings of pEC50 for the listed binders
SYSTEM_NAME: T1, human Trop2 on cells (human, UniProt P09758 27-323)
T1 construct: whole, on cells; also called hTrop2; 293T-human Trop2 cells
T1 sequence (looked up): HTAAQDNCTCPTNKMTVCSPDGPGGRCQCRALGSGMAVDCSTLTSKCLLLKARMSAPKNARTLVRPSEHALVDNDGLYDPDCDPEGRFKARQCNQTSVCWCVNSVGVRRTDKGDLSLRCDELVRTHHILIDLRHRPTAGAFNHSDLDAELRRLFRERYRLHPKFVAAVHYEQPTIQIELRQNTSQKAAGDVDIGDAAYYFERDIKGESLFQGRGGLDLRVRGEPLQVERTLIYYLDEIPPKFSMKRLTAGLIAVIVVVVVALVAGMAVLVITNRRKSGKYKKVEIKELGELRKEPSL
PROCEDURE_TEXT: flow cytometry on 293T-human Trop2 cells
To interpret pEC50, take it as minus log10 of a concentration measured in moles per litre.

BINDER | pEC50
PR001142 (antibody, human IgG1, kappa, V domains shown, fully human IgG1/kappa; also called antibody No. (9)) VH: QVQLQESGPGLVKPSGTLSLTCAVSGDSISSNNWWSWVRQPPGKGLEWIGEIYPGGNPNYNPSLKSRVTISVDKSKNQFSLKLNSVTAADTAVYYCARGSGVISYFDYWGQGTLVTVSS VL: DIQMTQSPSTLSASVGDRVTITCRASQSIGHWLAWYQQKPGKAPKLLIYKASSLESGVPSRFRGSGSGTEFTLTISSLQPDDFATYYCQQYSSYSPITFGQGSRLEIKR | 9.64
PR001160 (antibody, human IgG1, kappa, V domains shown, fully human IgG1/kappa; also called antibody No. (22)) VH: QVQLVESGGGVVQPGRSLRLSCEASGFTFSHYGMHWVRQAPGKGLEWVAVIWYDGIMKNYIESVKGRFTISRDNSKNTLYLQMNRLRAEDTAVYYCARDGGFGELNYYGLDVWGQGTTVTVSS VL: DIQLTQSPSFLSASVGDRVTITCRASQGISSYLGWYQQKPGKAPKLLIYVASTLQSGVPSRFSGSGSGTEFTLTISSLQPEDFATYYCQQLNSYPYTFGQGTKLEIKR | 8.91
PR001156 (antibody, human IgG1, kappa, V domains shown, fully human IgG1/kappa; also called antibody No. (19)) VH: QVQLVESGGGVVQPGRSLRLSCEGSGFTFSHYGMHWVRQAPGKGLEWVAVIWYDGIKKNYVDSLKGRFTISRDNSKNTLYLQMNSLRAEDTAVYYCARDGGFGELNYYGMDVWGQGTTVTVSS VL: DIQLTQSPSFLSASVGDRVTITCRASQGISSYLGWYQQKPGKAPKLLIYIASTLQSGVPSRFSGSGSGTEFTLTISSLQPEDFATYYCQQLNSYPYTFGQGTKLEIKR | 8.78
PR001153 (antibody, human IgG1, kappa, V domains shown, fully human IgG1/kappa; also called antibody No. (16)) VH: QVQLQESGPGLVKPSGTLSLTCAVSGGSISSSNWWSWVRQPPGKGLEWIGEIYHDGSTDYNPSLKSRVIISVDKSKNQFSLKVRSVTAADTAVYYCARDNWGFDYWGQGTLVTVSS VL: EIVLTQFPGTLSLSPGERATLSCRSSQSVSSSYLAWYQQKPGQAPRLLISGASSRATGIPDRFSGSGSGTDFTLTISRLEPEDFAVYYCQQYGSSPRTFGQGTKVEIKR | 8.61

# ---- query binder ----
Inquiry: Can you look up the measured pEC50 of PR001158 (antibody, human IgG1, kappa, V domains shown, fully human IgG1/kappa; also called antibody No. (20)) VH: QVQLVESGGGVVQPGRSLRLSCVASGFTFSHYGMHWVRQAPGKGLEWVAVIWYDGIKKYYVESVKGRFTISRDNSKNTLNLQMNRLRAEDTAVYYCARDGGFGESNYYGLDVWGQGTTVTVSS VL: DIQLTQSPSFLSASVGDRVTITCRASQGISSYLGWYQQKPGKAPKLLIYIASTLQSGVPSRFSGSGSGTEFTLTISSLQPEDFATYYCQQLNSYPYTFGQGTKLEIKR for me?
Reply text: 8.90
